Reported values of relative cell viability for individual entries
System: HCC1937;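 further: viability read by CCK-8 kit in 96-well plates, part of a combination screen pairing lipid-metabolism-targeting compounds with erastin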
Assay: relative cell viability, compound + erastin, vs DMSO (fraction of DMSO control); higher = less growth inhibition
Conditions: 72 h
Reply with the value as a number alone.

Check out these entries, answers already filled in.
>>> observed("C[C@@]12C[C@@H](c3ccoc3)OC(=O)[C@@H]1CC[C@]1(C)[C@H]2[C@@H]2C=C[C@@]1(O)C(=O)O2 [Columbin] + CCOc1ccccc1-n1c(C(C)N2CCN(C(=O)COc3ccc(Cl)cc3)CC2)nc2ccccc2c1=O")
0.607
>>> observed("COc1cc([C@@H]2Oc3c(O)cc([C@H]4Oc5cc(O)cc(O)c5C(=O)[C@@H]4O)cc3[C@H]2CO)ccc1O [Silychristin] + CCOc1ccccc1-n1c(C(C)N2CCN(C(=O)COc3ccc(Cl)cc3)CC2)nc2ccccc2c1=O")
0.584
>>> observed("CS(=O)(=O)c1ccc(-c2nnc(/C=C/c3nnc(-c4ccc(C#N)cc4)o3)n2-c2ccccc2Cl)nc1 + CCOc1ccccc1-n1c(C(C)N2CCN(C(=O)COc3ccc(Cl)cc3)CC2)nc2ccccc2c1=O")
0.735

Consider now this further molecule.
Exercise: Give recorded relative cell viability. CCc1c(-c2ccccc2)c(-c2ccccc2)nn1-c1ccccc1-c1cccc(OCC(=O)O)c1 + CCOc1ccccc1-n1c(C(C)N2CCN(C(=O)COc3ccc(Cl)cc3)CC2)nc2ccccc2c1=O
Key: 0.84
